Provenance of the data: ChEMBL document CHEMBL3797055

Measured MIC of individual entries
# System: Staphylococcus aureus
# Experiment summary: Potentiation of norfloxacin-induced antibacterial activity against clinical isolates of methicillin-resistant Staphylococcus aureus ST10760 assessed as norfloxacin MIC by checkerboard assay; further: test concentration or dose not given here
# Assay type: functional
Give the number; µg/mL is assumed, so skip it.

// solved cases for MIC follow
COc1cc(OC)c([C@@H]2COc3c(cc(/C=C/C(=O)c4ccco4)c4c3C=CC(C)(C)O4)C2)cc1/C=C/C(=O)c1ccco1	62.5
COc1ccc([C@@H]2COc3c(cc(/C=C/C(=O)c4ccc(OC)c(OC)c4)c4c3C=CC(C)(C)O4)C2)c(OC)c1	125

Can you share its MIC? I mean this compound: "CC1(C)C=Cc2c(ccc3c2OC[C@@H](c2ccc(O)cc2O)C3)O1"
125

Another compound: "COc1ccc([C@@H]2COc3c(cc(/C=C/C(=O)c4ccco4)c4c3C=CC(C)(C)O4)C2)c(OC)c1"
62.5

Another compound: "COc1cc(OC)c([C@@H]2COc3c(cc(/C=C/C(=O)c4ccc(OC)c(OC)c4)c4c3C=CC(C)(C)O4)C2)cc1/C=C/C(=O)c1ccc(OC)c(OC)c1"
62.5

---

# Tested on: Staphylococcus aureus
# Experiment summary: Potentiation of norfloxacin-induced antibacterial activity against clinical isolates of methicillin-resistant Staphylococcus aureus P4650 assessed as reduction in norfloxacin MIC by checkerboard assay relative to control; further: test concentration or dose not given here
# Type: functional
Endpoint name: fold change (FC)
I only need the number, thanks.

CC1(C)C=Cc2c(ccc3c2OC[C@@H](c2ccc(O)cc2O)C3)O1	4
COc1cc(OC)c([C@@H]2COc3c(cc(/C=C/C(=O)c4ccco4)c4c3C=CC(C)(C)O4)C2)cc1/C=C/C(=O)c1ccco1	8
COc1ccc([C@@H]2COc3c(cc(/C=C/C(=O)c4ccco4)c4c3C=CC(C)(C)O4)C2)c(OC)c1	4
COc1cc(OC)c([C@@H]2COc3c(cc(/C=C/C(=O)c4ccc(OC)c(OC)c4)c4c3C=CC(C)(C)O4)C2)cc1/C=C/C(=O)c1ccc(OC)c(OC)c1	4

# evaluate next
Can you share its fold change (FC)? I mean this compound: "COc1ccc([C@@H]2COc3c(cc(/C=C/C(=O)c4ccc(OC)c(OC)c4)c4c3C=CC(C)(C)O4)C2)c(OC)c1"
4

---

Measured fold change (FC) of individual entries
# System: Staphylococcus aureus
# Experiment summary: Potentiation of norfloxacin-induced antibacterial activity against clinical isolates of methicillin-resistant Staphylococcus aureus P4423 assessed as reduction in norfloxacin MIC by checkerboard assay relative to control
# Format: functional

// solved cases for fold change (FC) follow
COc1ccc([C@@H]2COc3c(cc(/C=C/C(=O)c4ccco4)c4c3C=CC(C)(C)O4)C2)c(OC)c1	8
COc1ccc([C@@H]2COc3c(cc(/C=C/C(=O)c4ccc(OC)c(OC)c4)c4c3C=CC(C)(C)O4)C2)c(OC)c1	4
COc1cc(OC)c([C@@H]2COc3c(cc(/C=C/C(=O)c4ccc(OC)c(OC)c4)c4c3C=CC(C)(C)O4)C2)cc1/C=C/C(=O)c1ccc(OC)c(OC)c1	4
CC1(C)C=Cc2c(ccc3c2OC[C@@H](c2ccc(O)cc2O)C3)O1	2

# evaluate next
Can you share its fold change (FC)? I mean this compound: "COc1cc(OC)c([C@@H]2COc3c(cc(/C=C/C(=O)c4ccco4)c4c3C=CC(C)(C)O4)C2)cc1/C=C/C(=O)c1ccco1"
8
